system: Acanthamoeba castellanii (ATCC50370) cysts; assay: Encystation drug susceptibility / excystation viability assay, 30 day recovery, A. castellanii cysts; format: cell-based; conditions: ATCC50370, 720 h, read-out: A. castellanii 30 day MCC
OUTCOME MEASURE: log10 of MCC (log10 of the value in µM)
Each number you see is log10 of MCC, and the unit inside the log is µM.

Answered cases to consult:
compound_string=CC(C)NC(=N)c1ccc2nc(-c3ccc(Oc4ccc(-c5nc6ccc(C(=N)NC(C)C)cc6[nH]5)c(Br)c4)cc3F)[nH]c2c1 outcome_measure="log10 of MCC" experimental_result=0.44
compound_string=CC(C)NC(=N)c1ccc2nc(-c3cc(F)c(Oc4ccc(-c5nc6ccc(C(=N)NC(C)C)cc6[nH]5)c(Br)c4)c(F)c3)[nH]c2c1 outcome_measure="log10 of MCC" experimental_result=0.72
compound_string=COc1cc(Oc2c(F)cc(-c3nc4ccc(C(=N)NC(C)C)cc4[nH]3)cc2F)ccc1-c1nc2ccc(C(=N)NC(C)C)cc2[nH]1 outcome_measure="log10 of MCC" experimental_result=1.68
compound_string=CC(C)NC(=N)c1ccc2nc(-c3ccc(Oc4ccc(-c5nc6ccc(C(=N)NC(C)C)cc6[nH]5)c(F)c4F)cc3Br)[nH]c2c1 outcome_measure="log10 of MCC" experimental_result=0.27
compound_string=CC(C)NC(=N)c1ccc2nc(-c3cc(F)c(Oc4ccc(-c5nc6ccc(C(=N)NC(C)C)cc6[nH]5)c(Cl)c4)c(F)c3)[nH]c2c1 outcome_measure="log10 of MCC" experimental_result=0.98
compound_string=CC(C)NC(=N)c1ccc2nc(-c3ccc(Oc4cc(F)c(-c5nc6ccc(C(=N)NC(C)C)cc6[nH]5)c(F)c4)cc3Br)[nH]c2c1 outcome_measure="log10 of MCC" experimental_result=0.24
compound_string=CC(C)NC(=N)c1ccc2nc(-c3ccc(Oc4ccc(-c5nc6ccc(C(=N)NC(C)C)cc6[nH]5)c(Br)c4)cc3Br)[nH]c2c1 outcome_measure="log10 of MCC" experimental_result=0.53

Would you kindly look at the next entry?
GET /values?item= CC(C)NC(=N)c1ccc2nc(-c3cc(F)c(Oc4ccc(-c5nc6ccc(C(=N)NC(C)C)cc6[nH]5)c(F)c4)c(F)c3)[nH]c2c1 &system= Acanthamoeba castellanii (ATCC50370) cysts returns log10 of MCC: 1.36

###

Tested on: Acanthamoeba castellanii trophozoites
Assay: Activity against Acanthamoeba castellanii trophozoites
Format: cell-based
Conditions: trophozoites, n = 2, Table 6, read-out: Acanthamoeba castellanii IC50
Method: Two Acanthamoeba species (Acanthamoeba castellanii—ATCC50370 and Acanthamoeba culbertsoni—ATCC30171) were bought from the American Type Culture Collection (ATCC) and one species (Acanthamoeba healyi) was donated from the Centers for Disease Control and Prevention (CDC) for our experimentations. Trophozoites were thawed and grown in 10 mL of a nutrient rich Peptose-Glucose (PG) media. […]
OUTCOME MEASURE: log10 IC50 (log10 of the value in µM)
Hello, just confirming the data are log10 of IC50 with units of µM.

Sample records with log10 IC50:
molecule="COc1ccc(-c2nc3ccc(-c4nc5ccc(C6=NCC(C)(C)CN6)cc5[nH]4)cc3[nH]2)cc1O [Compound AR]" experimental_result=0.30
molecule="CC(C)NC(=N)c1ccc2nc(-c3ccc(Oc4ccc(-c5nc6ccc(C(=N)NC(C)C)cc6[nH]5)cc4C#N)cc3)[nH]c2c1 [V]" experimental_result=0.01
molecule="CC(C)NC(=N)c1ccc2nc(-c3ccc(Oc4ccc(-c5nc6ccc(C(=N)NC(C)C)cc6[nH]5)cc4F)cc3)[nH]c2c1 [Compound I]" experimental_result=-0.15
molecule="CC(C)NC(=N)c1ccc2nc(-c3ccc(N(C)c4ccc(-c5nc6ccc(C(=N)NC(C)C)cc6[nH]5)cc4)cc3)[nH]c2c1 [BA]" experimental_result=0.23
molecule="N=C(N)c1ccc(-c2ccc(C(=O)Nc3cccc(C(=N)N)c3)cc2)cc1 [Compound AV]" experimental_result=-0.43

Lab book: log10 IC50 of N=C(NC1CCC1)c1ccc2nc(-c3ccc4nc(-c5cccc(O)c5)[nH]c4c3)[nH]c2c1 [Compound AT] noted as 0.10

Per the records, this molecule ( COc1cc(Oc2ccc(-c3nc4ccc(C(=N)NC(C)C)cc4[nH]3)cc2C#N)ccc1-c1nc2ccc(C(=N)NC(C)C)cc2[nH]1 [Z] ) has log10 IC50 equal to 0.27

For record CC(C)NC(=N)c1ccc2nc(-c3ccc(Oc4ccc(-c5nc6ccc(C(=N)NC(C)C)cc6[nH]5)cc4)cc3)[nH]c2c1 [Compound AZ] the listed log10 IC50 is -0.26

Notebook: COc1cc(Oc2ccc(-c3nc4ccc(C(=N)NC(C)C)cc4[nH]3)cc2F)ccc1-c1nc2ccc(C(=N)NC(C)C)cc2[nH]1 [K] , log10 IC50 read as 0.04

// field: log10 IC50; key: COc1cc(Oc2ccc(-c3nc4ccc(C(=N)NC(C)C)cc4[nH]3)c(Cl)c2)ccc1-c1nc2ccc(C(=N)NC(C)C)cc2[nH]1 [Compound S] ; value = 0.45

Just so you know, measured log10 IC50 for COc1ccc(-c2nc3ccc(-c4nc5ccc(C(=N)C6=NCCCN6)cc5[nH]4)cc3[nH]2)cc1O [AN] came out at -0.32

The recorded log10 IC50 for entry CC(C)NC(=N)c1ccc2nc(-c3ccc(Oc4ccc(-c5nc6ccc(C(=N)NC(C)C)cc6[nH]5)c(Cl)c4)c(C#N)c3)[nH]c2c1 [AA] equals -0.14

Lab note: CC(C)NC(=N)c1ccc2nc(-c3ccc(Oc4c(F)cc(-c5nc6ccc(C(=N)NC(C)C)cc6[nH]5)cc4F)cc3)[nH]c2c1 [W] gave log10 IC50 of 1.52

Noted for CC(C)NC(=N)c1ccc2nc(-c3ccc(Oc4ccc(-c5nc6ccc(C(=N)NC(C)C)cc6[nH]5)c(F)c4)c(C#N)c3)[nH]c2c1 [Y] : its log10 IC50 reads -0.02

Per the records, this molecule ( CN(C)CCNC(=O)c1ccc(-c2nc3ccc(-c4nc5ccc(C(=N)N)cc5[nH]4)cc3[nH]2)cc1 [Compound AK] ) has log10 IC50 equal to 1.46

Field log10 IC50 (entry Oc1cccc(-c2nc3ccc(-c4nc5ccc(C6=NCCCCN6)cc5[nH]4)cc3[nH]2)c1 [AO] ) reads 0.47

The molecule COc1cc(-c2nc3ccc(C(=N)NC(C)C)cc3[nH]2)ccc1Oc1ccc(-c2nc3ccc(C(=N)NC(C)C)cc3[nH]2)cc1F [J] showed log10 IC50 equal to -0.02

Form field log10 IC50, entry CC(C)NC(=N)c1ccc2nc(-c3ccc(Oc4ccc(-c5nc6ccc(C(=N)NC(C)C)cc6[nH]5)c(Cl)c4)cc3)[nH]c2c1 [Compound AG] : -0.51

The recorded log10 IC50 for entry COc1ccc(-c2nc3ccc(-c4nc5ccc(C(=N)NC6CCC6)cc5[nH]4)cc3[nH]2)cc1O [Compound AS] equals 0.38

Reported log10 IC50 of CC1CCN(C(=N)c2ccc3nc(-c4ccc(Oc5ccc(-c6nc7ccc(C(=N)N8CCC(C)CC8)cc7[nH]6)cc5)cc4)[nH]c3c2)CC1 [BF] : 0.59

Documented log10 IC50 of N=C(c1ccc2nc(-c3ccc(Oc4ccc(-c5nc6ccc(C(=N)N7CCSCC7)cc6[nH]5)cc4)cc3)[nH]c2c1)N1CCSCC1 [Compound BH] : 1.25

Item: COc1cc(-c2nc3ccc(C(=N)NC(C)C)cc3[nH]2)ccc1Oc1ccc(-c2nc3ccc(C(=N)NC(C)C)cc3[nH]2)cc1C#N [Compound U] | log10 IC50: 0.16

# molecule CC(C)NC(=N)c1ccc2nc(-c3ccc(Oc4ccc(-c5nc6ccc(C(=N)NC(C)C)cc6[nH]5)cc4I)cc3)[nH]c2c1 [AE] ; its log10 IC50 = 0.04

###

Items are presented alongside their recorded IC50.
system: Acanthamoeba castellanii trophozoites; test: Activity against Acanthamoeba castellanii trophozoites; type: cell-based; details: trophozoites, n = 2, Table 6, read-out: Acanthamoeba castellanii IC50
All answers are understood in nM, so give the number only.

Example entries and their recorded answers appear below.
compound="CC(C)NC(=N)c1ccc2nc(-c3ccc(Oc4ccc(-c5nc6ccc(C(=N)NC(C)C)cc6[nH]5)c(Br)c4)c(F)c3)[nH]c2c1 [Q]" outcome_measure=IC50 u=nM experimental_result=410
compound="CC(C)NC(=N)c1ccc2nc(-c3ccc(Oc4ccc(-c5nc6ccc(C(=N)NC(C)C)cc6[nH]5)cc4Cl)c(Cl)c3)[nH]c2c1 [P]" outcome_measure=IC50 u=nM experimental_result=810
compound="COc1cc(Oc2ccc(-c3nc4ccc(C(=N)NC(C)C)cc4[nH]3)c(Br)c2)ccc1-c1nc2ccc(C(=N)NC(C)C)cc2[nH]1 [N]" outcome_measure=IC50 u=nM experimental_result=560

# N=C(C1=NCCCN1)c1ccc2nc(-c3ccc4nc(-c5ccccc5)[nH]c4c3)[nH]c2c1 [AL] with Acanthamoeba castellanii trophozoites: IC50 is 2330
